- experimental.system: T1, GST-ZO-1 PDZ domain 2 (human)
- T1 construct: also called ZO-1 d2; ZO1 d2
- T1 sequence (chain, as listed by the source): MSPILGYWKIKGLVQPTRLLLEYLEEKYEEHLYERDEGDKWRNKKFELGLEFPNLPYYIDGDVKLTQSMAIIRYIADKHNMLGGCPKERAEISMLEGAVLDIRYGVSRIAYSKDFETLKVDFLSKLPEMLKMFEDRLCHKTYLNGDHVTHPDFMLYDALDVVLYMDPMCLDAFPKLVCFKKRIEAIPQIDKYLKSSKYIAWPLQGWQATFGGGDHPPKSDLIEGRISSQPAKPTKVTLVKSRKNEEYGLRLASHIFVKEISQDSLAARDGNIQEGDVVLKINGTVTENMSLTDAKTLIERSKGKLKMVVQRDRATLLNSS
- assay.comment: modified ELISA, GST-PDZ captured by anti-GST, biotinylated peptide titrated
pEC50: −log10 of the molar value. Where no end group is shown, it is not given here.

{"binder": "YGRKKRRQRRRQDEEEGIWA (also: biotinylated, position not given here, also called AVC#1790; AVC 1790) [YGRKKRRQRRRQDEEEGIWA (SEQ ID NO: 137)]", "pEC50": 7.30}
{"binder": "YGRKKRRQRRRARGDRKRIV (also: biotinylated, position not given here, also called AVC#1796; AVC 1796) [YGRKKRRQRRRARGDRKRIV (SEQ ID NO: 136)]", "pEC50": 7.70}
{"binder": "YGRKKRRQRRRAVAATSINL (also: biotinylated, position not given here, TAT plus 9 residues; also called AVC#1791; AVC 1791) [YGRKKRRQRRRAVAATSINL (SEQ ID NO: 138)]", "pEC50": 8.10}
